- target_or_system: T1, GST-PTPL1 PDZ domain 4 (Homo sapiens (Human)), Q12923
- T1 chain: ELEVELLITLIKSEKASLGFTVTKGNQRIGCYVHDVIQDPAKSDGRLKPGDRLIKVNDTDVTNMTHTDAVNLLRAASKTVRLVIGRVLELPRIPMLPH
- test_protocol: G assay titration, PDZ 5 ug/ml
measurement_type: Kd (nM)
Please reply with the bare figure in nM and do not write the unit itself.

Query: I have this binder here, RELVDRGEVRQFTLRHWLKV (modifications not checked) [Dopamine transporter] , and I need its recorded Kd.
Reply: 400
